- assayed_target: UniProt:P51677
- Sequence (P51677 whole entry): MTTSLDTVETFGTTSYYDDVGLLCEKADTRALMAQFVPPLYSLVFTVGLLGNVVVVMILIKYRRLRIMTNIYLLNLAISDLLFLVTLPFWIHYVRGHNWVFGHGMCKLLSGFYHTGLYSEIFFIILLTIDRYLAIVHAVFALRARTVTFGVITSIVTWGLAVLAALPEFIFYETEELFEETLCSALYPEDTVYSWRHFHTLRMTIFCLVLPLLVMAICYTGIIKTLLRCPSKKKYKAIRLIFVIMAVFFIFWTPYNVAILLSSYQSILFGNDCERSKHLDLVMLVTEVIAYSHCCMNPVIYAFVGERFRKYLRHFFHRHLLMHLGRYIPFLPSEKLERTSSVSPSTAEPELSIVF
readout: IC50 (nM)

smiles_code=NC(=O)c1ccc(CNC(=O)NC[C@@H]2CN(Cc3ccc(Cl)c(Cl)c3)CCO2)cc1 quantity_unit=nM number=10
